System: HEK-293T
METHOD: Multiplex assay against HEK293T
Type: toxicity, cell-based
CONDITION_SUMMARY: human, 48 h, 10 µM, compound concentration 10 uM, replicate 2
OUTCOME_MEASURE: Population Healthy Nuclei (%)
Give a bare numeral; the unit % is implied.

Here's what some known entries look like.
TEST_SMILES: Cc1ccc(/C(=C\CN2CCCC2)c2ccccn2)cc1
VALUE_UNIT: %
RECORDED_RESULT: 78

TEST_SMILES: COc1c(C)cc(NC(=O)c2nn(Cc3ccc(F)cc3)c3c2CN(C(=O)c2ccc[nH]2)C[C@]3(C)C(N)=O)cc1C
VALUE_UNIT: %
RECORDED_RESULT: 81

Exercise: Give the measured Population Healthy Nuclei (%) of O=C1COc2nccc(-c3ccccc3F)c2CN1Cc1cc(C(F)(F)F)cc(C(F)(F)F)c1 .
Key: 80

Exercise: Population Healthy Nuclei (%) lookup needed for CN(C)c1ccnc2sc3c(=O)n(N4CCCCCC4)cnc3c12 , thanks.
Key: 75

---

Tested on: HEK-293T
METHOD: Multiplex assay against HEK293T
Assay type: toxicity, cell-based
CONDITION_SUMMARY: human, 24 h, 1 µM, compound concentration 1 uM, replicate 2
Reported Population Membrane Permeable-Phenotype (%) is given for each of the following compounds.

Previously resolved entries follow.
COMPOUND: CNC[C@H](O)c1ccc(O)c(O)c1 [EPINEPHRINE]
RECORDED_RESULT: 1%
--
COMPOUND: O=C(O)c1cc2ccccc2c(Cc2c(O)c(C(=O)O)cc3ccccc23)c1O
RECORDED_RESULT: 0%
--
COMPOUND: CCCC(CCC)C(=O)O
RECORDED_RESULT: 0%
--
COMPOUND: CCCn1c(=O)c2[nH]c(C3CCCC3)nc2n(CCC)c1=O
RECORDED_RESULT: 0%

Exercise: API: value(readout=Population Membrane Permeable-Phenotype (%), system=HEK-293T) for record c1cc(OCCCN2CCCCC2)ccc1CN1CCCCC1
Key: 0%

---

Test system: Fibroblast
METHOD: Multiplex assay against human fibroblast
Assay type: toxicity, cell-based
CONDITION_SUMMARY: 12 h, 10 µM, compound concentration 10 uM, replicate 2
Population Tubulin-Different-Phenotype (%): recorded values
Numbers only here, please. The scale is %.

COMPOUND: CSCC[C@H](NC=O)C(=O)N[C@@H](CC(C)C)C(=O)N[C@@H](Cc1ccccc1)C(=O)O
VALUE_UNIT: %
RECORDED_RESULT: 35
//
COMPOUND: O=C(NCCO)c1cccc(-c2cc(Nc3ccc(OC(F)(F)F)cc3)ncn2)c1
VALUE_UNIT: %
RECORDED_RESULT: 79
//
COMPOUND: N#Cc1c(N)nc(SCc2csc(-c3ccc(Cl)cc3)n2)c(C#N)c1-c1ccc(OCCO)cc1
VALUE_UNIT: %
RECORDED_RESULT: 97
//
COMPOUND: CN(C)CCCc1cc(C(=O)Nc2ccc(-c3ccncc3)cc2)ccc1O.Cl.Cl
VALUE_UNIT: %
RECORDED_RESULT: 45
//
COMPOUND: CCOc1c2c(c(OCC)c3ncccc13)CN(c1ccc(CS(=O)(=O)NC(=O)Cc3ccccc3OC)cc1C)C2=O
VALUE_UNIT: %
RECORDED_RESULT: 54

Exercise: What is its Population Tubulin-Different-Phenotype (%) for Fibroblast? Entry: Cc1nc2ccc(Oc3ccc(F)cc3)cc2c(=O)n1C[C@H]1CCCN(C(C)C)C1.Cl
Key: 80

Exercise: Give Fibroblast Population Tubulin-Different-Phenotype (%) for CC(C)(C)c1ccc(S(=O)(=O)Nc2ccc(Cl)cc2C(=O)c2cc[n+]([O-])cc2)cc1
Key: 66

Exercise: Give recorded Population Tubulin-Different-Phenotype (%) with Fibroblast for the following compound: O=C(NCC(=O)N1CC[C@H](N[C@H]2CC[C@@](O)(c3ccc(-c4ncccn4)cn3)CC2)C1)c1cccc(C(F)(F)F)c1
Key: 44

Exercise: Value wanted: Population Tubulin-Different-Phenotype (%) (Fibroblast) of entry C[C@@H]1C[C@H]2[C@@H]3CCC4=CC(=O)C=C[C@]4(C)[C@@]3(F)[C@@H](O)C[C@]2(C)[C@@]1(O)C(=O)CO
Key: 53

Exercise: What reported Population Tubulin-Different-Phenotype (%) corresponds to CCCN1CCC[C@@H]2Cc3n[nH]cc3C[C@H]21.Cl [QUINPIROLE HYDROCHLORIDE] on Fibroblast?
Key: 55

Exercise: Recorded Population Tubulin-Different-Phenotype (%) for C[C@H](NC(=O)c1c(C(F)F)nn(C)c1Oc1cccc(C(F)(F)F)c1)c1ccc(C(=O)O)cc1 with Fibroblast, please?
Key: 60

Exercise: Field: Population Tubulin-Different-Phenotype (%) (Fibroblast). Entry: CCNC1(C(N)=O)CCN(c2ncnc3c2nc(-c2ccccc2Cl)n3-c2ccc(Cl)cc2)CC1
Key: 87

Cited source: ChEMBL document CHEMBL5058577
